Test: Selectivity index, ratio of IC50 for rat L6 cells to IC50 for Trypanosoma brucei rhodesiense STIB900
Type: toxicity, cell-based
Details: read-out: Ratio IC50
Measured selectivity ratio by item

{"smiles_entry": "N=C(NO)c1ccc(OCc2cccc(COc3ccc(C(=N)NO)cc3)c2)cc1", "recorded_result": "< 0.104"}
{"smiles_entry": "CC(C)NC(=N)c1ccc(OCc2cccc(COc3ccc(C(=N)NC(C)C)cc3)c2)cc1", "recorded_result": "> 2490"}

So what's the measured selectivity ratio for this one? CC(C)NC(=N)c1ccc(OCc2ccc(COc3ccc(C(=N)NC(C)C)cc3)cc2)cc1
> 2230

====

Test: Selectivity index, ratio of IC50 for rat L6 cells to IC50 for Leishmania donovani MHOM/SD/62/1S-CL2D amastigotes
Assay type: toxicity, cell-based
Conditions: read-out: Ratio IC50
measurement_label: selectivity ratio

{"smiles_entry": "CC(C)NC(=N)c1ccc(OCc2ccc(COc3ccc(C(=N)NC(C)C)cc3)cc2)cc1", "selectivity ratio": "> 20.9"}

Sample c1cc(OCc2ccccc2COc2cccc(C3=NCCN3)c2)cc(C2=NCCN2)c1 — what was its selectivity ratio?
< 0.665

// next record N=C(NO)c1cccc(OCc2cccc(COc3cccc(C(=N)NO)c3)c2)c1
< 0.172

Another compound to check: c1cc(OCc2ccc(COc3cccc(C4=NCCN4)c3)cc2)cc(C2=NCCN2)c1
< 0.099

====

Tested on: L6
Assay: Cytotoxicity against rat L6 cells
Type: cell-based
Listed next: entries and their corresponding pIC50.
Expect pIC50 as a plain number equal to -log10 of the molar concentration.

{"smiles_entry": "c1cc(OCc2ccc(COc3cccc(C4=NCCN4)c3)cc2)cc(C2=NCCN2)c1", "system_under_test": "L6", "measurement_label": "pIC50", "recorded_result": 4.70}
{"smiles_entry": "CC(C)NC(=N)c1cccc(OCc2ccc(COc3cccc(C(=N)NC(C)C)c3)cc2)c1", "system_under_test": "L6", "measurement_label": "pIC50", "recorded_result": 4.06}
{"smiles_entry": "N=C(N)c1ccc(OCc2cc(COc3ccc(C(=N)N)cc3)c3ccccc3c2)cc1", "system_under_test": "L6", "measurement_label": "pIC50", "recorded_result": 4.16}

Give its pIC50 value. Item: N=C(N)c1ccc(OCc2ccccc2COc2ccc(C(=N)N)cc2)cc1
4.52

Same lookup for c1cc(OCc2ccccc2COc2cccc(C3=NCCN3)c2)cc(C2=NCCN2)c1 , please.
4.18

Now this one: N=C(N)c1ccc(OCc2ccc(COc3ccc(C(=N)N)cc3)cc2)cc1
4.91

Entry to check: c1cc(COc2ccc(C3=NCCN3)cc2)cc(COc2ccc(C3=NCCN3)cc2)c1
3.91

====

System: L6
Assay: Cytotoxicity against rat L6 cells
Assay type: cell-based
measurement_label: pIC50
Field pIC50 (float): negative decimal logarithm of the concentration in molar.

Solved cases (3 shown):
{"smiles_entry": "N=C(N)c1ccc(COc2ccc3cc(OCc4ccc(C(=N)N)cc4)ccc3c2)cc1", "measurement_label": "pIC50", "recorded_result": 4.71}
{"smiles_entry": "N=C(N)c1ccc(OCc2cccc(COc3ccc(C(=N)N)cc3)c2)cc1", "measurement_label": "pIC50", "recorded_result": 5.04}
{"smiles_entry": "c1ccc(COc2ccc(C3=NCCN3)cc2)c(COc2ccc(C3=NCCN3)cc2)c1", "measurement_label": "pIC50", "recorded_result": 3.96}

Now, please, on to the next compound.
So what does the record say about pIC50 for N=C(NO)c1ccc(OCc2cccc(COc3ccc(C(=N)NO)cc3)c2)cc1 ?
5.19
